Values from patent US20250250357A1

target: T1, human MSLN-hFc recombinant protein (human, UniProt Q13421 296-580); test: SPR (Biacore 8K), MSLN-hFc captured, antibody injected
T1 construct: Captured by an anti-human IgG antibody on the chip; also called human MSLN protein; Acro MSN-H5253
T1 sequence (Q13421 other isoform, or with tags, fused parts or gaps): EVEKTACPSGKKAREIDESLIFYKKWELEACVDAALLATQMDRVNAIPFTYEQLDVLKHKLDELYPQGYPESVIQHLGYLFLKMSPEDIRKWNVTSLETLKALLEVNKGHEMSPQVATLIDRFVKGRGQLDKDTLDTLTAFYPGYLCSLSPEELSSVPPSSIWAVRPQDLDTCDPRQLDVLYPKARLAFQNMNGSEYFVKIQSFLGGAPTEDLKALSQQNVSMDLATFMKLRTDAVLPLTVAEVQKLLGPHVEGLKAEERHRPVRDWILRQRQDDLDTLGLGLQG
Let's look at some binders and their measured kon.
value-kind: kon (M⁻¹ s⁻¹)

| binder | value-kind | reading-unit | result-value |
| --- | --- | --- | --- |
| F3.80.22-H10 (scFv, not shown: small tags and cut ends, also called S009-F3.80.22 humanized antibody VL2 + VH2) scFv: DIVMTQTPLSLPVTPGEPASISCRSSQSLEHNNGNTYLHWFLHKPGQSPQLLIYKVSNRFSGVPDRFSGSGSGTDFTLKISRVEAEDVGVYYCSQSTHVPFTFGQGTKLEIKGGGGSGGGGSGGGGSEVQLVQSGAEVKKPGATVKISCKASGYTFTDYEIHWVQQAPGKGLEWMGAFDPEIGGSAYNQKFKDRVTITADKSTSTAYMELSSLRSEDTAVYYCTDYYGSSSGYFDVWGQGTTVTVSS | kon | M⁻¹ s⁻¹ | 8470 |
| F7.44.20-H16 (scFv, not shown: small tags and cut ends, also called S009-F7.44.20 humanized antibody VH2a + VL4) scFv: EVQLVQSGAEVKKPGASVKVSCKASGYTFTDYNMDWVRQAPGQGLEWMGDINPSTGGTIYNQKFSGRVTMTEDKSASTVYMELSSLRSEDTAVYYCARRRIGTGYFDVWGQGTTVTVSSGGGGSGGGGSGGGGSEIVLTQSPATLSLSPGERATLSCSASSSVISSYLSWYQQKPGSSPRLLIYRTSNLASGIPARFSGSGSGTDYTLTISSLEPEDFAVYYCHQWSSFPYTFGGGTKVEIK | kon | M⁻¹ s⁻¹ | 367000 |
| F7.44.20-H9 (scFv, not shown: small tags and cut ends, also called S009-F7.44.20 humanized antibody VH2 + VL1) scFv: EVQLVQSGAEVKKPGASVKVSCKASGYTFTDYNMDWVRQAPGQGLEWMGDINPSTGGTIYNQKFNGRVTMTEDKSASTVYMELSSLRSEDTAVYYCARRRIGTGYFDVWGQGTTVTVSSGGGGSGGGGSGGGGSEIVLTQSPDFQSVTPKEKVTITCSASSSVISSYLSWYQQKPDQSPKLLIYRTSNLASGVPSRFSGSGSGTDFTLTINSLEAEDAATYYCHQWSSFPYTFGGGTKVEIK | kon | M⁻¹ s⁻¹ | 449000 |
| F7.33.24-H8 (scFv, not shown: small tags and cut ends, also called S009-F7.33.24 humanized antibody VH2 + VL2) scFv: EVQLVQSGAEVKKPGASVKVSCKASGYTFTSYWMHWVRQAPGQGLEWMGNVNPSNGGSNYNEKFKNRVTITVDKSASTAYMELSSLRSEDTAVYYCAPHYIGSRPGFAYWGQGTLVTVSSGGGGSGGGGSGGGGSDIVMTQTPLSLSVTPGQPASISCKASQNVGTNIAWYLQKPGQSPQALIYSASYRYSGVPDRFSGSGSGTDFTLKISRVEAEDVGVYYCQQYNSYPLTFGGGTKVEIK | kon | M⁻¹ s⁻¹ | 402000 |
